molecular target: Protease (Human immunodeficiency virus 1); assay: Inhibition of HIV1 protease at 100 ug/ml
Sequence (Q9YQ12 whole entry): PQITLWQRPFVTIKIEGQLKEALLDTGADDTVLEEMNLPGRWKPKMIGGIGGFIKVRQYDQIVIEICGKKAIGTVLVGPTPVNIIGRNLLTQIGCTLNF
Hi there, I'd appreciate the recorded inhibition for every entry that follows.
Number first, unit second: that is the form wanted.

Q: Sample CC(C)=CCC[C@H](C(=O)O)[C@@H]1CC[C@]2(C)C3=CC[C@@H]4[C@](C)(CC[C@@H](O)[C@]4(C)CO)[C@H]3CC[C@@]12C — what was its inhibition?
Result: 26%

Q: Look up inhibition: CC1(C)CC[C@]2(C(=O)O)CC[C@]3(C)C(=CC[C@@H]4[C@@]5(C)CC[C@H](O)C(C)(C)[C@@H]5CC[C@]43C)[C@@H]2C1 [OLEANOLIC_ACID]
Result: 96%

Q: Which inhibition value belongs to Oc1cc(O)c2c(c1)O[C@@]1(c3ccc(O)c(O)c3)Oc3cc(O)c4c(c3[C@@H]2[C@H]1O)O[C@H](c1ccc(O)c(O)c1)[C@H](O)C4 [PROANTHOCYANIDIN A2] ?
Result: -2%

Q: Which measured inhibition value corresponds to Oc1cc(O)c2c(c1)O[C@@]1(c3cc(O)c(O)c(O)c3)Oc3cc(O)c4c(c3[C@@H]2[C@H]1O)O[C@H](c1ccc(O)c(O)c1)[C@H](O)C4 ?
Result: 89%

Q: Endpoint output: inhibition of C=C(CC[C@@H](C)[C@H]1CC[C@@]2(C)[C@@H]3CC[C@H]4C(C)(C)[C@@H](O)CC[C@@]45C[C@@]35CC[C@]12C)C(C)C . Value?
Result: 19%

Q: Quick one: inhibition of CC(C)=CCC[C@H](C(=O)O)[C@@H]1CC[C@]2(C)C3=CC[C@@H]4[C@](C)(CCC(=O)[C@]4(C)CO)[C@H]3CC[C@@]12C [XANTHOCERASIC ACID] ?
Result: 14%

====

For reference, IC50 measured on Protease (Human immunodeficiency virus 1, UniProt Q9YQ12):

Q: What does the data say about its IC50? Entry: CC(=O)N[C@H](C(=O)N[C@H](C(=O)N[C@@H](CC(C)C)[C@@H](O)CC(=O)N[C@@H](C)C(=O)N[C@@H](CC(C)C)[C@@H](O)CC(=O)O)C(C)C)C(C)C
Result: 0.233 µM

Q: Which value of IC50 has been reported for CC(C)=CCC[C@H](C(=O)O)[C@@H]1CC[C@]2(C)C3=CC[C@@H]4[C@](C)(CCC(=O)[C@]4(C)CO)[C@H]3CC[C@@]12C in the records?
Result: > 212 µM

Q: Can you share its IC50? I mean this compound: C=C(CC[C@@H](C)[C@H]1CC[C@@]2(C)[C@@H]3CC[C@H]4C(C)(C)[C@@H](O)CC[C@@]45C[C@@]35CC[C@]12C)C(C)C
Result: > 227 µM

====

target: Protease (Human immunodeficiency virus 1); experiment: Inhibition of HIV1 protease at 100 ug/ml
PROPERTY: inhibition

Q: For the molecule CC(C)=CCC[C@H](C(=O)O)[C@@H]1CC[C@]2(C)C3=CC[C@H]4C(C)(C)[C@@H](O)CC[C@]4(C)[C@H]3CC[C@@]12C , what inhibition is on record?
Result: 50%

Q: Fill blank: measured inhibition of the molecule CC(C)=CCC[C@H](C(=O)O)[C@@H]1CC[C@]2(C)C3=CC[C@H]4C(C)(C)C(=O)CC[C@]4(C)[C@H]3CC[C@@]12C is ____.
Result: 90%

Q: I would be grateful if you could share the reported inhibition for CC(=O)OC[C@@]1(C)C(=O)CC[C@@]2(C)[C@H]1CC=C1[C@@H]2CC[C@@]2(C)[C@H]([C@H](CCC=C(C)C)C(=O)O)CC[C@]12C .
Result: 26%

Q: Requested field: inhibition. Item: CC(C)=CCC[C@H](C(=O)O)[C@@H]1CC[C@]2(C)C3=CC[C@@H]4[C@](C)(CC[C@H](O)[C@]4(C)CO)[C@H]3CC[C@@]12C
Result: 53%

Q: Data request, read-out inhibition, for CC(=O)N[C@H](C(=O)N[C@H](C(=O)N[C@@H](CC(C)C)[C@@H](O)CC(=O)N[C@@H](C)C(=O)N[C@@H](CC(C)C)[C@@H](O)CC(=O)O)C(C)C)C(C)C [ACETYLPEPSTATIN]
Result: 100%

From: ChEMBL document CHEMBL1155677
